B1: C10orf62 (parent)
chain: RALEEVEMKLQKNFLTQRENTIAG

Variants of: B1
Assay: protein stability index of a GFP-peptide fusion (GPS, HEK-293T) (PSI 1-6); higher = more stable;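 further: lentivirally expressed fusions sorted by FACS into six bins by GFP to DsRed ratio, PSI derived from sequencing read proportions per bin multiplied by bin number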
Details: c terminus: a fixed tail appended
Reported protein stability index values for the following variants.
The answer should be written as a number, with no unit following it.

L3A	4.17

Prompt line: Report protein stability index for `E7A` please.
Response line: 2.02

Prompt line: Report protein stability index for `A23R` please.
Response line: 3.51

Prompt line: Report protein stability index for `T16V` please.
Response line: 3.16

Prompt line: Report protein stability index for `F14Y` please.
Response line: 3.69

Prompt line: Report protein stability index for `T21V` please.
Response line: 3.36

Prompt line: Report protein stability index for `A23V` please.
Response line: 3.44

Prompt line: Report protein stability index for `A23K` please.
Response line: 4.31

Prompt line: Report protein stability index for `N20H` please.
Response line: 2.85

Prompt line: Report protein stability index for `N13W` please.
Response line: 1.36

Prompt line: Report protein stability index for `F14M` please.
Response line: 3.82
